target: InsR (Homo sapiens)
Sequence (P06213 1023-1298 limits assumed, species assumed): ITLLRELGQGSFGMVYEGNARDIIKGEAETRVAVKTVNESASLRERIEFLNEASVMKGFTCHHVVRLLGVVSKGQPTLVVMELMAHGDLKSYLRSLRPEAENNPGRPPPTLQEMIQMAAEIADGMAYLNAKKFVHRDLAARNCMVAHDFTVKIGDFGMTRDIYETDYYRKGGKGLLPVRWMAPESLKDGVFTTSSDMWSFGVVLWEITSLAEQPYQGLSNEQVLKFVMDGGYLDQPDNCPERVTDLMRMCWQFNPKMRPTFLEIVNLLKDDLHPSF
Documented IC50 across a set of compounds

{"chemicalStructure": "CN1CCC(N2C(=O)c3cc4nc(-c5c(NC[C@@H](O)COc6ccc(C#N)c(Cl)c6)ccnc5O)[nH]c4cc3C2=O)CC1", "IC50": "5000 to 15000 nM"}

q: Fill: IC50 (InsR (Homo sapiens)) for this compound CN1CCC(N2Cc3cc4[nH]c(-c5c(NC[C@@H](O)COc6cc(F)c(F)cc6Br)cc[nH]c5=O)nc4cc3C2=O)CC1
a: < 500 nM

q: Fill: IC50 (InsR (Homo sapiens)) for this compound Cc1c(OC[C@H](O)CNc2cc[nH]c(=O)c2-c2nc3cc4c(cc3[nH]2)CN(C2CCN(C)CC2)C4=O)ccc2c1OCO2
a: < 500 nM

* * *

Test system: H929 (multiple myeloma)
Test: Cell proliferation inhibition, Cell Titer-Glo, H929
Type: cell-based
Details: Homo sapiens, NCI-H929; cell proliferation assay, H929 cells
Excerpt: IGF1R and other tyrosine kinase inhibitors can inhibit the proliferation of certain cancer cell lines indicating their possible therapeutic utility for treating the corresponding cancer types. […] The plated cells are mixed with the Cell Titer-Glo developing reagent and counted in a luminescence multiwell plate reader according to the standard manufacturer's protocol to generate IC50 curves for cell proliferation inhibition. […]
pIC50: −log10 of the molar value.
Documented pIC50 across a set of molecules

// below: answered molecules
{"molecule": "Cc1ccc2c(ccn2C[C@H](O)CNc2cc[nH]c(=O)c2-c2nc3cc4c(cc3[nH]2)C(=O)N(C2CCN(C)CC2)C4=O)c1 [compound 131]", "observedProperty": "pIC50", "reading": "5.30 to 6.30"}
{"molecule": "C[C@H](O)CN1C(=O)c2cc3nc(-c4c(NC[C@@H](O)c5cccc(Cl)c5)cc[nH]c4=O)[nH]c3cc2C1=O [compound 31]", "observedProperty": "pIC50", "reading": "5.30 to 6.30"}
{"molecule": "O=C1c2cc3nc(-c4c(NC[C@@H](O)c5cccc(Cl)c5)cc[nH]c4=O)[nH]c3cc2C(=O)N1CCCN1CCCC1 [compound 35]", "observedProperty": "pIC50", "reading": "4.82 to 5.30"}

q: Tell me measured pIC50 for Cc1ccc(OC[C@H](O)CNc2cc[nH]c(=O)c2-c2nc3c(C)c4c(cc3[nH]2)C(=O)N(C2CCN(C)CC2)C4=O)c(C)c1Cl [compound 137] please.
a: < 4.82

q: Tell me measured pIC50 for CN1CCC(N2C(=O)c3cc4nc(-c5c(NC[C@@H](O)COc6c(F)ccc(Cl)c6F)cc[nH]c5=O)[nH]c4cc3C2=O)CC1 [compound 95] please.
a: 4.82 to 5.30

q: Tell me measured pIC50 for CN1CCC(N2C(=O)c3cc4nc(-c5c(NC[C@@H](O)COc6cccc(Cl)c6F)cc[nH]c5=O)[nH]c4cc3C2=O)CC1 [compound 96] please.
a: 4.82 to 5.30

* * *

system: My5; assay: Cell proliferation inhibition, MTT assay, My5; type: cell-based; conditions: Homo sapiens, Multiple myeloma cell, 72 h, My5 multiple myeloma cells, 3-day proliferation
observedProperty: IC50

{"molecule": "Cc1ccc(OCC(=O)CNc2cc[nH]c(=O)c2-c2nc3cc4c(cc3[nH]2)CN(C2CCN(C)CC2)C4=O)c(C)c1 [drawing 845]", "IC50": "1 to 5 µM"}

q: Fill: IC50 (My5) for this molecule CCc1cc2c(cc1OCC(=O)CNc1cc[nH]c(=O)c1-c1nc3cc4c(cc3[nH]1)C(=O)N(C1CCN(C)CC1)C4)OCO2 [drawing 849]
a: 5 to 20 µM

q: Fill: IC50 (My5) for this molecule Cc1ccc(OCC(=O)CNc2cc[nH]c(=O)c2-c2nc3cc4c(cc3[nH]2)CN(CCCN2CCCC2)C4=O)c(C)c1 [drawing 847]
a: 5 to 20 µM

q: Fill: IC50 (My5) for this molecule CN1CCC(N2Cc3cc4[nH]c(-c5c(NCC(=O)COc6ccccc6Br)cc[nH]c5=O)nc4cc3C2=O)CC1 [drawing 848]
a: 1 to 5 µM

q: Fill: IC50 (My5) for this molecule COc1ccc(OCC(=O)CNc2cc[nH]c(=O)c2-c2nc3cc4c(cc3[nH]2)C(=O)N(C2CCN(C)CC2)C4)c(Cl)c1 [drawing 850]
a: 5 to 20 µM
